- Test system: CD2F1 mice, L1210 leukemia ip, survival T/C
- ASSAY NAME: NCI In Vivo Anticancer Drug Screen. Data for tumor model L1210 Leukemia (intraperitoneal) in CD2F1 (CDF1) mice
- EXPERIMENTAL PARAMETERS: endpoint: mean survival time; dose: 400.0 mg/kg/injection; schedule: Q04DX003 (ip); vehicle: saline with Tween-80; higher = longer survival
Toxic doses and inconclusive results are not listed.
PROPERTY LABEL: T/C

For the molecule Cc1ccc(NC(=O)NC2CCCCC2)cc1 , what T/C is on record? 93 % of control

For the molecule CCC1OC2CS(=O)(=O)CC2O1 (stereo not drawn) , what T/C is on record? 96 % of control

New cases:
Give its T/C value. Item: CCCCCCCCCCCCCCCCCCCCCC(=O)OC 87 % of control

Which T/C reading was recorded for the molecule O=S(=O)(Oc1ccccc1)c1ccc(Cl)cc1 ? 102 % of control

Item under review: Nc1nc(N)c(N=Nc2ccccc2S(=O)(=O)O)c(N)n1 . Reported T/C? 93 % of control

Request the reported T/C associated with CC1(C(N)=O)OC12CCCCC2 (stereo not drawn) 97 % of control

Please give the measured T/C for this molecule: O=C1OCC/C1=C1\CCCO1 95 % of control

// lookup T/C for CN(C)c1ccc(N=Nc2ccc(Cl)c(Cl)c2)cc1 96 % of control

====

- System: CD2F1 mice, L1210 leukemia ip, survival T/C
- ASSAY NAME: NCI In Vivo Anticancer Drug Screen. Data for tumor model L1210 Leukemia (intraperitoneal) in CD2F1 (CDF1) mice
- EXPERIMENTAL PARAMETERS: endpoint: mean survival time; dose: 200.0 mg/kg/injection; schedule: Q04DX003 (ip); vehicle: saline with Tween-80; higher = longer survival
Inconclusive results and toxic doses are left out.
Recorded T/C by entry

Known T/C results, listed for orientation:
Query (compound): Cc1ccc(-n2c(N)cc(=O)[nH]c2=S)nc1 ; field requested: T/C 100 % of control

// T/C lookup, key: O=C(OC1COC(OC(=O)c2ccccc2)C(OC(=O)c2ccccc2)C1OC(=O)c1ccccc1)c1ccccc1 (configuration not stated) 86 % of control

Note: attention shifts to another entry.
What measured T/C goes with c1ccc2nc(NCCSSCCNc3cnc4ccccc4n3)cnc2c1 ? 101 % of control

====

- Tested on: CD2F1 mice, L1210 leukemia ip, survival T/C
- ASSAY NAME: NCI In Vivo Anticancer Drug Screen. Data for tumor model L1210 Leukemia (intraperitoneal) in CD2F1 (CDF1) mice
- EXPERIMENTAL PARAMETERS: endpoint: mean survival time; dose: 400.0 mg/kg/injection; schedule: Q04DX003 (ip); vehicle: other; higher = longer survival
Toxic doses and inconclusive results are not listed. Non-standard residues stand in square brackets, D forms with d. Residues, ends and D or L forms follow the SMILES beside them. ξ: configuration not given here. *: point of attachment. ξE = NC(CCC(=O)O)C(=O)O; Cbz = O=C(OCc1ccccc1)*; OBn = c1ccc(CO*)cc1
Catalogue of compounds with associated T/C

Fill in the blank: the reported T/C of O=C(CNC(=O)OCc1ccccc1)NCC(=O)NC(CCC(=O)OCc1ccccc1)C(=O)OCc1ccccc1 (stereo not drawn) (Cbz-Gly-Gly-[ξE](OBn)-OBn) is ____. 95 % of control

Fill blank: measured T/C of the compound OC(c1ccccc1)c1ccccn1 (configuration not stated) is ____. 98 % of control

Name the reported T/C value associated with the compound Cc1ccccc1NCc1ccccc1 100 % of control

Quick one: T/C of [Cl][Pt][Cl].c1ccc([SeH]c2ccccc2)cc1.c1ccc([SeH]c2ccccc2)cc1 ? 100 % of control

Next:
Give its T/C value. Item: CCNc1ncc2ccccc2c1-c1ccc(NCCCl)cc1 90 % of control

What does the record list as T/C for Cc1ccc(S(=O)(=O)OCCCCOS(=O)(=O)c2ccc(C)cc2)cc1 ? 96 % of control

Suppose we examine the compound Nn1cnnc1SCc1ccccc1 ; what T/C value has been reported? 105 % of control
